molecular target: cChimera (cNTnC-cTnI [136–163] chimera) (Homo sapiens, UniProt P19429+P63316, C35S/C84S); assay: NMR titration
I'd appreciate it if you could supply pKd values for the items below.
pKd here: minus log base 10 of the concentration, concentration in moles per litre.

Input line: Look at this compound and give its reported pKd. Clc1cccc(Nc2ccccc2)c1 [3-chlorodiphenylamine]
Output line: 5.00

Input line: Further, for O=C(O)c1ccccc1Nc1ccccc1 [NSC215211] ?
Output line: 3.10

Data credit: paper PMC5391171
